System: U-251
Assay: Anticancer activity against human U-251 cells assessed as cell growth inhibition measured after 48 hrs by sulforhodamine B assay
Format: functional
Details: Homo sapiens, U-251, 48 h
The following molecules are shown together with reported GI50 values.

Below, 2 molecules whose answers are already recorded.
>>> test_result("CCOC(=O)c1nn(-c2ccccc2)c(-c2ccc(F)cc2)c1CNC(C)(C)C")
"> 632 µM"
>>> test_result("Cc1ccc(-c2c(CNC(C)(C)C)c(C(=O)O)nn2-c2ccccc2)cc1")
"> 688 µM"

Now consider a different molecule.
Query :: Query: GI50; subject: CCOC(=O)c1nn(-c2ccc(Cl)cc2)c(-c2ccc([N+](=O)[O-])cc2)c1CNC(C)(C)C
Result :: > 548 µM

====

The following compounds are shown together with reported GI50 values.
System: OVCAR-3
Assay: Anticancer activity against human OVCAR-3 cells assessed as cell growth inhibition measured after 48 hrs by sulforhodamine B assay
Type: functional
Settings: Homo sapiens, OVCAR-3, 48 h

>>> test_result("CC(C)(C)NCc1c(C(=O)O)nn(-c2ccccc2)c1-c1ccccc1")
"> 716 µM"
>>> test_result("CCOC(=O)c1nn(-c2ccc(Cl)cc2)c(-c2ccccc2)c1CNC(C)(C)C")
"> 608 µM"
>>> test_result("Cc1ccc(-c2c(CNC(C)(C)C)c(C(=O)O)nn2-c2ccc(Cl)cc2)cc1")
"> 630 µM"
>>> test_result("CC(C)(C)NCc1c(C(=O)O)nn(-c2ccccc2)c1-c1ccc(Br)cc1")
"> 585 µM"
>>> test_result("COc1ccc(-c2c(CNC(C)(C)C)c(C(=O)O)nn2-c2ccccc2)cc1")
"> 659 µM"

Query :: Query: GI50; subject: CC(C)(C)NCc1c(C(=O)O)nn(-c2ccccc2)c1-c1ccc(Cl)cc1
Result :: > 652 µM

====

Assay: Cytotoxicity against human HaCaT cells assessed as cell growth inhibition measured after 48 hrs by sulforhodamine B assay
Assay type: cell-based
Settings: HaCaT cells
The following molecules are shown together with reported GI50 at 48 h values.

Below, 5 molecules whose answers are already recorded.
>>> test_result("CC(C)(C)NCc1c(C(=O)O)nn(-c2ccccc2)c1-c1ccc(Cl)cc1")
"> 652 µM"
>>> test_result("COc1ccc(-c2c(CNC(C)(C)C)c(C(=O)O)nn2-c2ccccc2)cc1")
"> 659 µM"
>>> test_result("COc1cccc2c1C(=O)c1c(O)c3c(c(O)c1C2=O)C[C@@](O)(C(=O)CO)C[C@@H]3O[C@H]1C[C@H](N)[C@H](O)[C@H](C)O1")
"< 0.046 µM"
>>> test_result("CC(C)(C)NCc1c(C(=O)O)nn(-c2ccc(Cl)cc2)c1-c1ccc(F)cc1")
"28.7 µM"
>>> test_result("CC(C)(C)NCc1c(C(=O)O)nn(-c2ccccc2)c1-c1ccc([N+](=O)[O-])cc1")
"> 634 µM"

Query :: Query: GI50 at 48 h; subject: CCOC(=O)c1nn(-c2ccccc2)c(-c2ccc([N+](=O)[O-])cc2)c1CNC(C)(C)C
Result :: 103 µM

Query :: Query: GI50 at 48 h; subject: CC(C)(C)NCc1c(C(=O)O)nn(-c2ccccc2)c1-c1ccccc1
Result :: > 716 µM

The reported measurements were obtained from ChEMBL document CHEMBL4673302.
